Reported Kd values for a set of compounds
- experimental target: S100B (Homo sapiens, UniProt P04271)
- Construct: made in house; host or cells: Escherichia coli BL21(DE3)
- Sequence (P04271 whole entry): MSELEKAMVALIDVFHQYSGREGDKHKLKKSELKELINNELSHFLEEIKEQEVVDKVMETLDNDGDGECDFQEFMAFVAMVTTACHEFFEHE
- assay text: Competition pull-down with native ligand RSK1 (689–735)
- Assay type: binding
- conditions: H14 library; competitor peptide 200 µM; read-out: Surface mapping KD (apparent), competition
Give just the number in µM; leave the unit off.

# count of solved cases: 2
{"compound": "NC(=O)[C@H]1CCCC[C@@H]1NC(=O)C[C@H](Cc1ccc(O)cc1)NC(=O)[C@H]1CCCC[C@@H]1NC(=O)[C@H]1CCCC[C@@H]1NC(=O)C[C@H](Cc1ccccc1)NC(=O)[C@H]1CCCC[C@@H]1N [H14 FY]", "Kd, µM": 146}
{"compound": "CC(C)[C@@H](CC(=O)N[C@H]1CCCC[C@@H]1C(N)=O)NC(=O)[C@H]1CCCC[C@@H]1NC(=O)[C@H]1CCCC[C@@H]1NC(=O)C[C@H](Cc1c[nH]c2ccccc12)NC(=O)[C@H]1CCCC[C@@H]1N [H14 WV]", "Kd, µM": 116}

Q) Query (compound): NC(=O)[C@H]1CCCC[C@@H]1NC(=O)C[C@H](Cc1ccccc1)NC(=O)[C@H]1CCCC[C@@H]1NC(=O)[C@H]1CCCC[C@@H]1NC(=O)C[C@H](CCC(=O)O)NC(=O)[C@H]1CCCC[C@@H]1N [H14 EF] ; field requested: Kd
A) 126

Q) Query (compound): CC(C)C[C@@H](CC(=O)N[C@H]1CCCC[C@@H]1C(=O)N[C@H]1CCCC[C@@H]1C(=O)N[C@H](CC(=O)N[C@H]1CCCC[C@@H]1C(N)=O)Cc1ccc(O)cc1)NC(=O)[C@H]1CCCC[C@@H]1N [H14 LY] ; field requested: Kd
A) 154

---

Reported Kd values for a set of molecules
- experimental target: RecQ-WH (Escherichia coli, UniProt P15043)
- Construct: coding for residues 408– 523 of E. coli RecQ; made in house; host or cells: E. coli BL21(DE3)
- Sequence (P15043 408-523): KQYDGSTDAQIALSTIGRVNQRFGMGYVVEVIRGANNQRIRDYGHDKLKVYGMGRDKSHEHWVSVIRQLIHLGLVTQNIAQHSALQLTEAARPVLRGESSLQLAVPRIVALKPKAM
- assay text: Competition pull-down with native ligand SSB-Ct8
- Type: binding, E. coli
- conditions: H14 library; competitor peptide 200 µM; read-out: Surface mapping KD (apparent), competition
Give just the number in µM; leave the unit off.

# count of solved cases: 5
{"molecule": "NC(=O)[C@H]1CCCC[C@@H]1NC(=O)C[C@H](Cc1ccc(O)cc1)NC(=O)[C@H]1CCCC[C@@H]1NC(=O)[C@H]1CCCC[C@@H]1NC(=O)C[C@H](Cc1ccc(O)cc1)NC(=O)[C@H]1CCCC[C@@H]1N [H14 YY]", "measured result": 298}
{"molecule": "CC[C@H](C)[C@@H](CC(=O)N[C@H]1CCCC[C@@H]1C(N)=O)NC(=O)[C@H]1CCCC[C@@H]1NC(=O)[C@H]1CCCC[C@@H]1NC(=O)C[C@@H](NC(=O)[C@H]1CCCC[C@@H]1N)[C@@H](C)CC [H14 II]", "measured result": 364}
{"molecule": "CSCC[C@@H](CC(=O)N[C@H]1CCCC[C@@H]1C(N)=O)NC(=O)[C@H]1CCCC[C@@H]1NC(=O)[C@H]1CCCC[C@@H]1NC(=O)C[C@H](Cc1ccccc1)NC(=O)[C@H]1CCCC[C@@H]1N [H14 FM]", "measured result": 454}
{"molecule": "CC[C@H](C)[C@@H](CC(=O)N[C@H]1CCCC[C@@H]1C(N)=O)NC(=O)[C@H]1CCCC[C@@H]1NC(=O)[C@H]1CCCC[C@@H]1NC(=O)C[C@H](Cc1c[nH]c2ccccc12)NC(=O)[C@H]1CCCC[C@@H]1N [H14 WI]", "measured result": 142}
{"molecule": "CSCC[C@@H](CC(=O)N[C@H]1CCCC[C@@H]1C(N)=O)NC(=O)[C@H]1CCCC[C@@H]1NC(=O)[C@H]1CCCC[C@@H]1NC(=O)C[C@H](Cc1c[nH]c2ccccc12)NC(=O)[C@H]1CCCC[C@@H]1N [H14 WM]", "measured result": 188}

Q) Query (molecule): NC(=O)[C@H]1CCCC[C@@H]1NC(=O)C[C@H](Cc1c[nH]c2ccccc12)NC(=O)[C@H]1CCCC[C@@H]1NC(=O)[C@H]1CCCC[C@@H]1NC(=O)C[C@H](CO)NC(=O)[C@H]1CCCC[C@@H]1N [H14 SW] ; field requested: Kd
A) 265
